# target: PDPK1 (human) (UniProt O15530)
# Sequence (O15530 whole entry, looked up): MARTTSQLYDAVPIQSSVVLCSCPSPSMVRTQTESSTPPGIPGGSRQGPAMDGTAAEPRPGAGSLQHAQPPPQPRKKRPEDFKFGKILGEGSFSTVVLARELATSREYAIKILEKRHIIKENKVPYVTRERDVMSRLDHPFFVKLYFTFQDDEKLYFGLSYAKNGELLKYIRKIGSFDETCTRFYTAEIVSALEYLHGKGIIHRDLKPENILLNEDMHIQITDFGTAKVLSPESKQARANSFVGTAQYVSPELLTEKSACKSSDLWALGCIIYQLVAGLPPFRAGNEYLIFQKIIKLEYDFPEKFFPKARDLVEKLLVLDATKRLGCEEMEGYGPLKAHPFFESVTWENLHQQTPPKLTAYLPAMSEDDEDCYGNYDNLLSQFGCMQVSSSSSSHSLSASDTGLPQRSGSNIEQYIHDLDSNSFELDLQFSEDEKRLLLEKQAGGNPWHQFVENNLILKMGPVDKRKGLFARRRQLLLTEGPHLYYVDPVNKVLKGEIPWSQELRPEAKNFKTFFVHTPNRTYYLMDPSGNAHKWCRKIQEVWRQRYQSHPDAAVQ
# protocol-notes: KINOMEscan competition binding
# test-context: compound 10.0 µM
Measured kinase still bound, per cent of control of individual entries

smiles-record	kinase still bound, per cent of control [%]
CC(C)n1nc(-c2cc3cc(O)ccc3[nH]2)c2c(N)ncnc21	96
COC(=O)Nc1ccc(-c2nc(N3CCOCC3)c3cnn(C4CCN(C(=O)OC)CC4)c3n2)cc1	85
COc1ccc(-c2ccc3c(N4CCOCC4)nc(N4C[C@@H](C)O[C@@H](C)C4)nc3n2)cc1CO	100
CCC(=O)N1CCN(c2ccc(-n3c(=O)ccc4cnc5ccc(-c6cnc7ccccc7c6)cc5c43)cc2C(F)(F)F)CC1	100

Ref: the kinase profiling compilation of Christmann-Franck et al. (2016)
